Source: ChEMBL document CHEMBL5126633

system-name: Histone deacetylase 5 (Homo sapiens, UniProt Q9UQL6)
Sequence (Q9UQL6 whole entry): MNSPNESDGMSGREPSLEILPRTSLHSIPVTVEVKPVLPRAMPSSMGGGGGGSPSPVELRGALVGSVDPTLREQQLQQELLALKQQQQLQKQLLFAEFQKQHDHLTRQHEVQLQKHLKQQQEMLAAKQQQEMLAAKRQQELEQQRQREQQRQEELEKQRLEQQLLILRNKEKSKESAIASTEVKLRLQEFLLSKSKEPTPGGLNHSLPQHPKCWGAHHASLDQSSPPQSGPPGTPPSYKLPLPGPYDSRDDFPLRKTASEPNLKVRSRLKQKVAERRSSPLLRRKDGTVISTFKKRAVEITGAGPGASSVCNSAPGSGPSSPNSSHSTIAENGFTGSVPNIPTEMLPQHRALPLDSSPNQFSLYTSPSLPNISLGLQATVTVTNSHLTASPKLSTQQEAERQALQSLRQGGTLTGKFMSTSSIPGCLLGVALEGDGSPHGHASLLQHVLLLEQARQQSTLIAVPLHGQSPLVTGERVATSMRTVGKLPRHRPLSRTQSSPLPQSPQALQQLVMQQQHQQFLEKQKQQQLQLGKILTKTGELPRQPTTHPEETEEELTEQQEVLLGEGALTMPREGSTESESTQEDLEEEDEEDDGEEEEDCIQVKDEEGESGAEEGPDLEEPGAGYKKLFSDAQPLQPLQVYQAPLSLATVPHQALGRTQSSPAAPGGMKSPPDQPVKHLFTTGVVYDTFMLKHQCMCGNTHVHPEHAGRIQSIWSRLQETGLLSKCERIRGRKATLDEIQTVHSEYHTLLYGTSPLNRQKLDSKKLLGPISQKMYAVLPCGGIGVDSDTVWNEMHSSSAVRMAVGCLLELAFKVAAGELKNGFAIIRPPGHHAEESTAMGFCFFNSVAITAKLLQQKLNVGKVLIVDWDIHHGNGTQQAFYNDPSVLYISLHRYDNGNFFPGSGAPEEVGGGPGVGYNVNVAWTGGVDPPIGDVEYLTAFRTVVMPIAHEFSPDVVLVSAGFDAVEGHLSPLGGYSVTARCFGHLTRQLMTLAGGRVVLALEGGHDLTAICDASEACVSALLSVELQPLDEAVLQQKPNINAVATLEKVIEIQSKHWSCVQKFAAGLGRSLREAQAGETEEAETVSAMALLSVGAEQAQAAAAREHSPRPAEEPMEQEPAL
measurement-protocol: Inhibition of recombinant HDAC5 (unknown origin) using Boc-Lys(TFA)-AMC as substrate by fluorescence based plate reader assay
# IC50 annotations
measured-quantity: IC50 (nM)

compound=CCCN(CCCCOCCOCCOCCOCC(=O)N[C@H](C(=O)N1C[C@H](O)C[C@H]1C(=O)NCc1ccc(-c2scnc2C)cc1)C(C)(C)C)C[C@@H](C)NC(=O)c1ccc(-c2noc(C(F)(F)F)n2)cc1 system_name="Histone deacetylase 5 (Homo sapiens, UniProt Q9UQL6)" measured_quantity=IC50 recorded_number=250
compound="Cc1ncsc1-c1ccc(CNC(=O)[C@@H]2C[C@@H](O)CN2C(=O)[C@@H](NC(=O)COCCOCCOCC(F)(F)c2cnc(-c3ccc(C(C(=O)NO)c4ccccc4F)cc3)nc2)C(C)(C)C)cc1 (mixture of isomers)" system_name="Histone deacetylase 5 (Homo sapiens, UniProt Q9UQL6)" measured_quantity=IC50 recorded_number=230
compound=CCCN(CCCCOCCOCCOCCOCCOCC(=O)N[C@H](C(=O)N1C[C@H](O)C[C@H]1C(=O)NCc1ccc(-c2scnc2C)cc1)C(C)(C)C)C[C@@H](C)NC(=O)c1ccc(-c2noc(C(F)(F)F)n2)cc1 system_name="Histone deacetylase 5 (Homo sapiens, UniProt Q9UQL6)" measured_quantity=IC50 recorded_number=150
